# System: OVCAR3 cells
# PROTOCOL SUMMARY: MTT proliferation assay, OVCAR3;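 note: compound given as an 8- or 10-point series, one day after plating, with exposure covering roughly 3-4 cell doublings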
# Type: cell-based
# EXPERIMENTAL PARAMETERS: 5 days compound exposure, 1:3 serial dilution starting at 10 μM
*1 amine or outer side, *2 acyl side, *3 side chain or, on linkers, in order; H or OH if unused. Where a SMILES comes first, the peptide text is derived from it. Bridges are numbered along the chain shown (N, C = ends). [ ]: non-standard residue; d: D form. The star is where a group is joined. NMePhe(2-(4-MorPh),5-Cl) = CN[C@@H](Cc1cc(Cl)ccc1-c1ccc(N2CCOCC2)cc1)C(=O)O; X78 = CN1CCN(C2(c3ccc(-c4ccc(Cl)cc4C[C@@H](C(=O)[*:2])N(C)[*:1])cc3)CC2)CC1; X150 = CC(C)C(=O)N1C2C=C(c3ccc(F)cc3C[C@@H](C(=O)[*:2])N(C)[*:1])CC1CC2; X195 = CC(=O)Nc1ccc(-c2ccc(Cl)cc2C[C@@H](C(=O)[*:2])N(C)[*:1])cn1; X192 = COc1cccc(-c2ccc(Cl)cc2C[C@@H](C(=O)[*:2])N(C)[*:1])c1; NMehhhLys(Me) = CN([C@@H](CCCCCCCN(C)[*:3])C(=O)[*:2])[*:1]; X174 = CN([C@@H](Cc1cc(Cl)cnc1-c1cnn(C)c1)C(=O)[*:2])[*:1]; X131 = CN([C@@H](Cc1cc(F)cnc1-c1cnn(C)c1)C(=O)[*:2])[*:1]; Oxane2carbonyl(2R-CF3) = O=C([C@@]1(C(F)(F)F)CCCCO1)*; Cyclobutanecarbonyl(1-CF3) = O=C(C1(C(F)(F)F)CCC1)*; cBuCO(3,3-F2-1-CF3) = O=C(C1(C(F)(F)F)CC(F)(F)C1)*; X161 = Cc1ccc(F)cc1C[C@@H](C(=O)[*:2])N(C)[*:1]; Pro(trans-4-F) = O=C(O)[C@@H]1C[C@@H](F)CN1; Gly(cPr) = N[C@H](C(=O)O)C1CC1; X65 = CC1(C(=O)*)CC(F)(F)C1
Each item that follows carries a reported GI50.

COMPOUND: CC(C)C[C@@H]1NC(=O)[C@@H](N(C)C(=O)[C@@H](NC(=O)[C@@H]2C[C@@H](F)CN2C(=O)C2(C)CC(F)(F)C2)C2CC2)CCCCCCCN(C)C(=O)[C@H](Cc2cc(Cl)ccc2-c2ccc(N3CCOCC3)cc2)N(C)C1=O [Example 365] (X65-[Pro(trans-4-F)][Gly(cPr)][NMehhhLys(Me)]L[NMePhe(2-(4-MorPh),5-Cl)]; lactam 3-C)
SYSTEM NAME: OVCAR3 cells
UNIT NAME: nM
GI50: 10

COMPOUND: CC(C)C[C@@H]1NC(=O)[C@@H](N(C)C(=O)[C@@H](NC(=O)[C@@H]2C[C@@H](F)CN2C(=O)C2(C(F)(F)F)CC(F)(F)C2)C2CC2)CCCCCCCN(C)C(=O)[C@H](Cc2cc(F)ccc2C2=CC3CCC(C2)N3C(=O)C(C)C)N(C)C1=O (stereo partly drawn) [Example 150] ({cBuCO(3,3-F2-1-CF3)}-[Pro(trans-4-F)][Gly(cPr)][NMehhhLys(Me)]L[X150]; lactam 3-C)
SYSTEM NAME: OVCAR3 cells
UNIT NAME: nM
GI50: 40

COMPOUND: CC(C)C[C@@H]1NC(=O)[C@@H](N(C)C(=O)[C@@H](NC(=O)[C@@H]2C[C@@H](F)CN2C(=O)C2(C(F)(F)F)CC(F)(F)C2)C2CC2)CC=CCCCCNC(=O)[C@H](Cc2cc(Cl)ccc2-c2cnn(C)c2)N(C)C1=O
SYSTEM NAME: OVCAR3 cells
UNIT NAME: nM
GI50: 170

COMPOUND: CC(C)C[C@@H]1NC(=O)[C@@H](N(C)C(=O)[C@@H](NC(=O)[C@@H]2C[C@@H](F)CN2C(=O)C2(C(F)(F)F)CC(F)(F)C2)C2CC2)CCCCCCCN(C)C(=O)[C@H](Cc2cc(Cl)ccc2-c2ccc(C3(N4CCN(C)CC4)CC3)cc2)N(C)C1=O [Example 381] ({cBuCO(3,3-F2-1-CF3)}-[Pro(trans-4-F)][Gly(cPr)][NMehhhLys(Me)]L[X78]; lactam 3-C)
SYSTEM NAME: OVCAR3 cells
UNIT NAME: nM
GI50: 40

COMPOUND: COc1cccc(-c2ccc(Cl)cc2C[C@H]2C(=O)N(C)CCCCCCC[C@H](N(C)C(=O)[C@@H](NC(=O)[C@@H]3C[C@@H](F)CN3C(=O)C3(C(F)(F)F)CC(F)(F)C3)C3CC3)C(=O)N[C@@H](CC(C)C)C(=O)N2C)c1 [Example 197] ({cBuCO(3,3-F2-1-CF3)}-[Pro(trans-4-F)][Gly(cPr)][NMehhhLys(Me)]L[X192]; lactam 3-C)
SYSTEM NAME: OVCAR3 cells
UNIT NAME: nM
GI50: 100

COMPOUND: CC(C)C[C@@H]1NC(=O)[C@@H](N(C)C(=O)[C@@H](NC(=O)[C@@H]2C[C@@H](F)CN2C(=O)C2(C(F)(F)F)CCC2)C2CC2)CCCCCCCN(C)C(=O)[C@H](Cc2cc(F)cnc2-c2cnn(C)c2)N(C)C1=O [Example 245] ({Cyclobutanecarbonyl(1-CF3)}-[Pro(trans-4-F)][Gly(cPr)][NMehhhLys(Me)]L[X131]; lactam 3-C)
SYSTEM NAME: OVCAR3 cells
UNIT NAME: nM
GI50: 20

COMPOUND: Cc1nnc(-c2ccc(Cl)cc2C[C@H]2C(=O)NCCCCC=CC[C@H](N(C)C(=O)[C@@H](NC(=O)[C@@H]3C[C@@H](F)CN3C(=O)C3(C(F)(F)F)CC(F)(F)C3)C3CC3)C(=O)N[C@@H](CC(C)C)C(=O)N2C)o1 (single isomer, unassigned) [Example 118-P1]
SYSTEM NAME: OVCAR3 cells
UNIT NAME: nM
GI50: 170

COMPOUND: CC(C)C[C@@H]1NC(=O)[C@@H](N(C)C(=O)[C@@H](NC(=O)[C@@H]2C[C@@H](F)CN2C(=O)[C@@]2(C(F)(F)F)CCCCO2)C2CC2)CCCCCCCN(C)C(=O)[C@H](Cc2cc(Cl)cnc2-c2cnn(C)c2)N(C)C1=O [Example 248] ({Oxane2carbonyl(2R-CF3)}-[Pro(trans-4-F)][Gly(cPr)][NMehhhLys(Me)]L[X174]; lactam 3-C)
SYSTEM NAME: OVCAR3 cells
UNIT NAME: nM
GI50: 20

COMPOUND: CC[C@H](NC(=O)[C@@H]1C[C@@H](F)CN1C(=O)C1(C(F)(F)F)CC1)C(=O)N[C@H]1CC=CCCCCN(C)C(=O)[C@H](Cc2cc(Cl)ccc2Cl)N(C)C(=O)[C@H](CC(C)C)NC1=O
SYSTEM NAME: OVCAR3 cells
UNIT NAME: nM
GI50: 240

COMPOUND: CC(C)C[C@@H]1NC(=O)[C@@H](N(C)C(=O)[C@@H](NC(=O)[C@@H]2C[C@@H](F)CN2C(=O)C2(C(F)(F)F)CC(F)(F)C2)C2CC2)CC=CCCCCN(C)C(=O)[C@H](Cc2cc(F)ccc2-c2cncnc2)N(C)C1=O
SYSTEM NAME: OVCAR3 cells
UNIT NAME: nM
GI50: 160

COMPOUND: Cc1ccc(F)cc1C[C@H]1C(=O)N(C)CCCCCCC[C@H](N(C)C(=O)[C@@H](NC(=O)[C@@H]2C[C@@H](F)CN2C(=O)C2(C(F)(F)F)CC(F)(F)C2)C2CC2)C(=O)N[C@@H](CC(C)C)C(=O)N1C [Example 123] ({cBuCO(3,3-F2-1-CF3)}-[Pro(trans-4-F)][Gly(cPr)][NMehhhLys(Me)]L[X161]; lactam 3-C)
SYSTEM NAME: OVCAR3 cells
UNIT NAME: nM
GI50: 20

COMPOUND: CC(=O)Nc1ccc(-c2ccc(Cl)cc2C[C@H]2C(=O)N(C)CCCCCCC[C@H](N(C)C(=O)[C@@H](NC(=O)[C@@H]3C[C@@H](F)CN3C(=O)C3(C(F)(F)F)CC(F)(F)C3)C3CC3)C(=O)N[C@@H](CC(C)C)C(=O)N2C)cn1 [Example 265] ({cBuCO(3,3-F2-1-CF3)}-[Pro(trans-4-F)][Gly(cPr)][NMehhhLys(Me)]L[X195]; lactam 3-C)
SYSTEM NAME: OVCAR3 cells
UNIT NAME: nM
GI50: 20
